# Experimental system: T1, 5-Helix (HIV-1 group M subtype B, HXB2 (gp41 …, stabilised))
# T1 construct: also called designed protein based on HIV-1 gp41
# Method: ELISA; competitive phage ELISA, on-phage bivalent scFv: binding to immobilised 5-Helix inhibited by free 5-Helix or free 6-Helix-Fd (concentrations for the trimer); apparent
# Condition description: one partner purified
Readout: IC50
Your answer should be a number followed by the unit of measure.

Guide cases for IC50, answers given:
Binder	IC50
D5 bivalent scFv (biv-scFv) displayed on M13 phage (scFv, V domains shown) VH: QVQLVQSGAEVRKPGASVKVSCKASGDTFSSYAISWVRQAPGQGLEWMGGIIPIFGTANYAQAFQGRVTITANESTSTAYMELSSLRSEDTAIYYCARDNPTLLGSDYWGAGTLVTVSS VL: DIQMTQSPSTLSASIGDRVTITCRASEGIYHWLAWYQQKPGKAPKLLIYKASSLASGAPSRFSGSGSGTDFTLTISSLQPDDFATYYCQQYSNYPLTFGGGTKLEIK	0.1 nM
25A10 bivalent scFv on phage (scFv, V domains shown) VH: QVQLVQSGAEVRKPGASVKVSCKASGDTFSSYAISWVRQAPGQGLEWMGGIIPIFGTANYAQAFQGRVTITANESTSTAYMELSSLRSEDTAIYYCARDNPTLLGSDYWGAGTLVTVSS VL: DIQMTQSPSTLSASIGDRVTITCRASESISHNLAWYQQKPGKAPKLLISNASRLASGAPSRFSGSGSGTDFTLTISSLQPDDFATYYCQQYSNYPLTFGGGTKLEIK	1.6 nM
25C12 bivalent scFv on phage (scFv, V domains shown) VH: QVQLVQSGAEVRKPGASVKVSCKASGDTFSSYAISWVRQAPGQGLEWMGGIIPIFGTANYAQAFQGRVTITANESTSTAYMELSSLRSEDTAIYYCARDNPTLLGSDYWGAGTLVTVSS VL: DIQMTQSPSTLSASIGDRVTITCRASEDISSVLAWYQQKPGKAPKLLIYNASRLASGAPSRFSGSGSGTDFTLTISSLQPDDFATYYCQQRANNPHTFGGGTKLEIK	100 nM

I have 4 binders here; please give me IC50 for each one.
1. 25D6 bivalent scFv on phage (scFv, V domains shown) VH: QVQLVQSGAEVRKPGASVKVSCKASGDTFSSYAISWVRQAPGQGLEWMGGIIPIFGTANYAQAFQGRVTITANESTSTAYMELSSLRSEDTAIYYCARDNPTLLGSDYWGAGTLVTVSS VL: DIQMTQSPSTLSASIGDRVTITCRASENIYSNLAWYQQKPGKAPKLLISSASRLASGAPSRFSGSGSGTDFTLTISSLQPDDFATYYCQQNSNNPHTFGGGTKLEIK
2. 25F10 bivalent scFv on phage (scFv, V domains shown) VH: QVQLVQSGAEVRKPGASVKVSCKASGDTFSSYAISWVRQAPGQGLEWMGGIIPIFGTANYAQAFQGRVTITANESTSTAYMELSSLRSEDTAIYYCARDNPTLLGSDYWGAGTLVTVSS VL: DIQMTQSPSTLSASIGDRVTITCRASEGIHNRLAWYQQKPGKAPKLLISHASNLASGAPSRFSGSGSGTDFTLTISSLQPDDFATYYCQQYSNYPLTFGGGTKLEIK
3. 25D8 bivalent scFv on phage (scFv, V domains shown) VH: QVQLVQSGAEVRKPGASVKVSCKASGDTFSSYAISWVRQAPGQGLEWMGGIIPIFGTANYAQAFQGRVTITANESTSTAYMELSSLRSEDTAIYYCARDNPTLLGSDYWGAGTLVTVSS VL: DIQMTQSPSTLSASIGDRVTITCRASEGISSNLAWYQQKPGKAPKLLISRAYRLASGAPSRFSGSGSGTDFTLTISSLQPDDFATYYCQQRATYPLTFGGGTKLEIK
4. 25B8 bivalent scFv on phage (scFv, V domains shown) VH: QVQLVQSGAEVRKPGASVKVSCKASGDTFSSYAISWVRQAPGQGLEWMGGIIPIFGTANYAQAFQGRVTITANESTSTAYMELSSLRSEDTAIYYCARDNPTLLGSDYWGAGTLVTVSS VL: DIQMTQSPSTLSASIGDRVTITCRASENINRNLAWYQQKPGKAPKLLISRASRLASGAPSRFSGSGSGTDFTLTISSLQPDDFATYYCQQRYNYPYTFGGGTKLEIK

Result string:
["0.5 nM", "0.2 nM", "5.8 nM", "3.1 nM"]
